Taken from patent US20090093423A2.

testProtocol: Intravenous pharmacokinetics in mice
Format: in vivo, Swiss mice
conditionParameters: Swiss, mouse, in vivo, iv, 8 mg/kg; read-out: AUC0-∝
metricName: AUC

AUC reported for this molecule C[n+]1ccn(C[C@@]2(C)[C@H](C(=O)[O-])N3C(=O)C[C@H]3S2(=O)=O)n1 : 5830 ng·h/mL
